Biological target: Platelet-activating factor acetylhydrolase (Homo sapiens, UniProt Q13093)
Sequence (Q13093 whole entry): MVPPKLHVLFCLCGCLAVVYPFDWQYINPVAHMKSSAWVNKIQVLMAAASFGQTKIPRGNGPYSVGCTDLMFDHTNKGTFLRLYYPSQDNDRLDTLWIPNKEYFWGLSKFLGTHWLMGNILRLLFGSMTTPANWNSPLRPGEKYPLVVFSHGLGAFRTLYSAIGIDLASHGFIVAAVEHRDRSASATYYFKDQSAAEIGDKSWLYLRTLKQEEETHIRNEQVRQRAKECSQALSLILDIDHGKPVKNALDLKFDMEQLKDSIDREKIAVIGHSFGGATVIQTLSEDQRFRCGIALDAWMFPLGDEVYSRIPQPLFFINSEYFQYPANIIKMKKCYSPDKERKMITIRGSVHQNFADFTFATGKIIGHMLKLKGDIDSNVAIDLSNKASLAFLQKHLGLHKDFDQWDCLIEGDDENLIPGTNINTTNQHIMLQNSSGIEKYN
Assay: Inhibition of human plasma lipoprotein-associated phospholipase A2 using 2-thio-PAF as substrate preincubated for 20 mins measured 1 hr post substrate addition by spectrophotometric analysis
pIC50: −log10 of the molar value.
Measured quantity: pIC50

# Compound, Target, Observed value
records = [
    ("O=C(Nc1ccccc1)c1ccc2cccc(O)c2n1", "Platelet-activating factor acetylhydrolase (Homo sapiens, UniProt Q13093)", "< 4.00"),
    ("O=C(O)c1cc(O)c2cccc(O)c2n1 [XANTHURENATE]", "Platelet-activating factor acetylhydrolase (Homo sapiens, UniProt Q13093)", "< 4.00"),
    ("Oc1cccc2cccnc12", "Platelet-activating factor acetylhydrolase (Homo sapiens, UniProt Q13093)", "< 4.00"),
]

* * *

pIC50 listing for selected compounds.
Target: Platelet-activating factor acetylhydrolase (Homo sapiens, UniProt Q13093)
Test: Inhibition of human plasma lipoprotein-associated phospholipase A2 using 2-thio-PAF as substrate preincubated for 20 mins measured 1 hr post substrate addition by spectrophotometric analysis
pIC50: −log10 of the molar value.
Measured quantity: pIC50

# Compound, Observed value
records = [
    ("Oc1cccc2cccnc12", "< 4.00"),
    ("O=C(Nc1ccccc1)c1ccc2cccc(O)c2n1", "< 4.00"),
    ("O=C(O)c1cc(O)c2cccc(O)c2n1 [XANTHURENATE]", "< 4.00"),
]
